Can you tell me log10 MIC90 for the items I'm about to list?
Test system: Cryptococcus neoformans
method: Antimicrobial activity against Cryptococcus neoformans by broth microdilution method
Format: functional
Log10 applied to MIC90; unit prior to transform: µg/mL.

CCOc1ccc(C2NC(c3ccc(OCC)cc3)C3C(=NO)C2C(c2ccc(OCC)cc2)NC3c2ccc(OCC)cc2)cc1 (stereo unspecified): 1.81
CON=C1C2C(c3ccc(SC)cc3)NC(c3ccc(SC)cc3)C1C(c1ccc(SC)cc1)NC2c1ccc(SC)cc1 (stereo unspecified): 0.90
CON=C1C2C(c3ccc(F)cc3)NC(c3ccc(F)cc3)C1C(c1ccc(F)cc1)NC2c1ccc(F)cc1 (stereo unspecified): 1.51
CON=C1C2C(c3ccc(OC)cc3)NC(c3ccc(OC)cc3)C1C(c1ccc(OC)cc1)NC2c1ccc(OC)cc1 (stereo unspecified): 1.20
OC(Cn1cncn1)(Cn1cncn1)c1ccc(F)cc1F: 0.30
CCCOc1ccc(C2NC(c3ccc(OCCC)cc3)C3C(=NOC)C2C(c2ccc(OCCC)cc2)NC3c2ccc(OCCC)cc2)cc1 (stereo unspecified): 1.51
CCCOc1ccc(C2NC(c3ccc(OCCC)cc3)C3C(=NO)C2C(c2ccc(OCCC)cc2)NC3c2ccc(OCCC)cc2)cc1 (stereo unspecified): 1.51

--- query ---
Input: Which log10 MIC90 is listed for CON=C1C2C(c3cccc(OC)c3)NC(c3cccc(OC)c3)C1C(c1cccc(OC)c1)NC2c1cccc(OC)c1 (stereo unspecified) ?
Output: 2.11

====

Can you tell me MIC90 for the items I'm about to list?
System: Aspergillus niger
method: Antifungal activity against Aspergillus niger by broth microdilution method
Type: functional

Before answering, review these 3 worked examples.
CCc1ccc(C2NC(c3ccc(CC)cc3)C3C(=NO)C2C(c2ccc(CC)cc2)NC3c2ccc(CC)cc2)cc1 (stereo not given): > 128 µg/mL
CON=C1C2C(c3ccccc3Br)NC(c3ccccc3Br)C1C(c1ccccc1Br)NC2c1ccccc1Br (stereo not given): > 128 µg/mL
C=CCOc1ccc(C2NC(c3ccc(OCC=C)cc3)C3C(=NO)C2C(c2ccc(OCC=C)cc2)NC3c2ccc(OCC=C)cc2)cc1 (stereo not given): 64 µg/mL

// for each compound in input: emit MIC90
1. CON=C1C2C(c3ccc(OC)cc3)NC(c3ccc(OC)cc3)C1C(c1ccc(OC)cc1)NC2c1ccc(OC)cc1 (stereo not given)
2. COc1ccccc1C1NC(c2ccccc2OC)C2C(=NO)C1C(c1ccccc1OC)NC2c1ccccc1OC (stereo not given)
3. CON=C1C2C(c3ccc(OCc4ccccc4)cc3)NC(c3ccc(OCc4ccccc4)cc3)C1C(c1ccc(OCc3ccccc3)cc1)NC2c1ccc(OCc2ccccc2)cc1 (stereo not given)
4. CON=C1C2C(c3ccc(C)cc3)NC(c3ccc(C)cc3)C1C(c1ccc(C)cc1)NC2c1ccc(C)cc1 (stereo not given)
5. CC(C)c1ccc(C2NC(c3ccc(C(C)C)cc3)C3C(=NO)C2C(c2ccc(C(C)C)cc2)NC3c2ccc(C(C)C)cc2)cc1 (stereo not given)
6. C=CCOc1ccc(C2NC(c3ccc(OCC=C)cc3)C3C(=NOC)C2C(c2ccc(OCC=C)cc2)NC3c2ccc(OCC=C)cc2)cc1 (stereo not given)
7. CCOc1ccccc1C1NC(c2ccccc2OCC)C2C(=NOC)C1C(c1ccccc1OCC)NC2c1ccccc1OCC (stereo not given)
8. ON=C1C2C(c3ccc(Cl)cc3)NC(c3ccc(Cl)cc3)C1C(c1ccc(Cl)cc1)NC2c1ccc(Cl)cc1 (stereo not given)

Output:
["16 µg/mL", "16 µg/mL", "64 µg/mL", "64 µg/mL", "> 128 µg/mL", "64 µg/mL", "16 µg/mL", "64 µg/mL"]

Consider the following items and state reported MIC90 for each.
1. CSc1ccc(C2NC(c3ccc(SC)cc3)C3C(=NO)C2C(c2ccc(SC)cc2)NC3c2ccc(SC)cc2)cc1 (stereo not given)
2. CCCOc1ccc(C2NC(c3ccc(OCCC)cc3)C3C(=NOC)C2C(c2ccc(OCCC)cc2)NC3c2ccc(OCCC)cc2)cc1 (stereo not given)
3. ON=C1C2C(c3ccc(OCc4ccccc4)cc3)NC(c3ccc(OCc4ccccc4)cc3)C1C(c1ccc(OCc3ccccc3)cc1)NC2c1ccc(OCc2ccccc2)cc1 (stereo not given)
4. CON=C1C2C(c3ccc(SC)cc3)NC(c3ccc(SC)cc3)C1C(c1ccc(SC)cc1)NC2c1ccc(SC)cc1 (stereo not given)

Output:
1. 16 µg/mL
2. 16 µg/mL
3. 128 µg/mL
4. 4 µg/mL
